# METHOD_DESCRIPTION: inhibitors of TNFa-induced NFkB p65 translocation, primary screen, imaging, HUVEC, MLSMR starter and 10KST1 sets (AID 438);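 note: compound added about 3h40 before a 20 min TNFalpha stimulation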
# CONDITION_DESCRIPTION: HUVEC TNFa-induced p65 nuclear translocation; measured here: nuclei count (cytotoxicity indicator), at 2.08 µM
// bucketize cell count: band A (below 400), band B (400 to below 600), band C (600 or more)

{"columns": ["MOLECULE", "CLASS_ASSIGNMENT"],
 "data": [
  ["CSc1cccc(NC(=O)C2CCCN2S(=O)(=O)c2ccc3c(c2)CCC(=O)N3)c1 (stereo not given)", "band B"],
  ["Cc1ccc(C)c(CSc2nnc(CCN)o2)c1", "band B"],
  ["COc1ccc(CCN2C(=O)CCC2(C)C(=O)NCc2cccnc2)cc1OC (stereo not given)", "band B"],
  ["COC(=O)c1ccccc1NC(=O)c1cnc2sccn2c1=O", "band B"],
  ["CCCn1cnc2c(c1=O)c1nc3ccccc3nc1n2Cc1ccccc1OC", "band B"],
  ["CCOc1cc2[nH]c(=S)n(CC3CCCO3)c(=O)c2cc1OCC (stereo not given)", "band A"],
  ["CCOC(=O)N1CCC2(CC1)CC(=O)c1c(ccc3oc(C(=O)O)c(C)c13)O2", "band A"],
  ["Cc1nc2nc(-c3cccnc3)nn2c(C)c1Cl", "band C"],
  ["CCOc1ccccc1Nc1nnc(SCC(=O)N2CCCC2)s1", "band C"],
  ["Cn1nnnc1SCSc1nnnn1C", "band C"],
  ["Cc1ccc(S(=O)(=O)Cn2nnnc2CN(Cc2ccco2)Cc2cccs2)cc1", "band A"],
  ["Cc1ccc(S(=O)(=O)C(C#N)c2nc3ccccc3nc2OC(C)C)cc1 (stereo not given)", "band B"],
  ["Cn1c(=O)c2c(-c3ccncc3)c3c(nc2n(C)c1=O)-c1ccccc1C3=O", "band C"],
  ["COc1cc2cc(C(c3nnnn3C3CCCC3)N3CCCCCC3)c(=O)[nH]c2cc1OC (stereo not given)", "band B"],
  ["COC(=O)c1ccc(C2C(C#N)=C(N)Oc3cc(C)n(C)c(=O)c32)cc1 (stereo not given)", "band B"],
  ["CCOc1ccc(-c2nc(S(=O)(=O)c3ccccc3)c(NCc3cccnc3)o2)cc1", "band C"],
  ["Clc1ccc(Cl)c(-c2nn3c(COc4ccccc4)nnc3s2)c1", "band C"],
  ["COC(=O)c1ccc(COC(=O)c2c(C)nn(Cc3ccccc3Cl)c2Cl)o1", "band B"],
  ["O=C1CCCc2c1nn(-c1ccccc1)[n+]2[O-]", "band B"],
  ["CCn1cc(C(=O)NCC2CCCO2)c(=O)c2cc(S(=O)(=O)N(C)C)ccc21 (stereo not given)", "band C"],
  ["Cc1cc(/N=C/N(C)C)on1", "band B"],
  ["CCOC(=O)N1CCN(C(=O)c2ccc3nc4cc(Cl)ccc4c(=O)n3c2)CC1", "band C"],
  ["CCOC(=O)CC(=O)CSc1nc(-c2cccnc2)ccc1C#N", "band C"],
  ["COc1ccc2c(c1)CCc1c(C(=O)N3CC4(C)CC3CC(C)(C)C4)noc1-2 (stereo not given)", "band A"],
  ["CCN(CC)S(=O)(=O)c1ccc(C(=O)N2CCN=C2SCc2cccnc2)cc1", "band A"],
  ["CCC(C)(C(=O)NC1CCCC1)N(Cc1cccs1)C(=O)Cc1cccs1 (stereo not given)", "band C"],
  ["CC(=O)NCCn1ccc2ccccc21", "band A"],
  ["COc1ccc2c(c1)CCc1c(C(=O)NCc3cccnc3)noc1-2", "band A"],
  ["O=C(NC1CCCCC1)C(c1ccc(Cl)cc1)N(C(=O)c1cnccn1)c1ccc2c(c1)OCO2 (stereo not given)", "band C"],
  ["CCOC(=O)N1CCC(NC(=O)Cc2ccc(-n3c(=O)[nH]c4ccccc4c3=O)cc2)CC1", "band C"],
  ["Cc1cccc(C(=O)O)c1NC(=O)c1ccc(F)cc1", "band A"],
  ["CCOC(=O)C1CCN(S(=O)(=O)c2cc(Cl)c(C)cc2OC)CC1", "band B"],
  ["O=C(CSc1nc(O)cc(=O)n1-c1ccccc1)N1CCCCC1", "band C"],
  ["O=C(OCC#CCSc1nc2ccccc2o1)c1ccco1", "band B"],
  ["Cc1cc(=O)[nH]c(SCC(=O)NCc2ccco2)n1", "band A"],
  ["CCCCCCC(c1c(C)n(C)n(-c2ccccc2)c1=O)c1c(C)n(C)n(-c2ccccc2)c1=O", "band A"],
  ["O=C(CSc1ncn[nH]1)NC1CC2CCC1C2 (stereo not given)", "band A"],
  ["COc1ccc(-c2nnn(CCc3nn[nH]n3)n2)cc1OC", "band B"],
  ["CC(C)OC(=O)c1cc(NC(=O)C2C3CCC(O3)C2C(=O)O)cc(C(=O)OC(C)C)c1 (stereo not given)", "band B"]
]}
